assay.name: UV-visible absorption and fluorescence spectra, fluorescence quantum yields in solution
Type: physicochemical
experimental.setup: methylene chloride solution (Table 9, Example 13)
endpoint: Emission maxima (nm)
Answers are plain numbers, in nm.

Record excerpt, results attached:
query: Please look at this compound and report its Emission maxima: C#CC1=C(C)C2=C(c3ccc(OCCCCCCCCCCCC)cc3)c3c(C)c(C#C)c(C)n3[B-](F)(F)[N+]2=C1C
result: 551

query: Please look at this compound and report its Emission maxima: CCCCCCCCCCCCOc1cc(C2=C3C(C)=C(I)C(C)=[N+]3[B-](F)(F)n3c(C)c(I)c(C)c32)cc(OCCCCCCCCCCCC)c1OCCCCCCCCCCCC
result: 550

Lab note: each compound below needs its Emission maxima filled in.
1. CCCCCCCCCCCCOc1cc(C2=C3C(C)=C(C#C[Si](C)(C)C)C(C)=[N+]3[B-](F)(F)n3c(C)c(C#C[Si](C)(C)C)c(C)c32)cc(OCCCCCCCCCCCC)c1OCCCCCCCCCCCC
2. C#CC1=C(C)C2=C(c3cc(OCCCCCCCCCCCC)c(OCCCCCCCCCCCC)c(OCCCCCCCCCCCC)c3)c3c(C)c(C#C)c(C)n3[B-](F)(F)[N+]2=C1C
3. CCCCCCCCCCCCOc1cc(C2=C3C(C)=CC(C)=[N+]3[B-](F)(F)n3c(C)cc(C)c32)cc(OCCCCCCCCCCCC)c1OCCCCCCCCCCCC
4. CCCCCCCCCCCCOc1ccc(C2=C3C(C)=CC(C)=[N+]3[B-](F)(F)n3c(C)cc(C)c32)cc1OCCCCCCCCCCCC
5. CCCCCCCCCCCCOc1ccc(C2=C3C(C)=C(C#C[Si](C)(C)C)C(C)=[N+]3[B-](F)(F)n3c(C)c(C#C[Si](C)(C)C)c(C)c32)cc1
6. CCCCCCCCCCCCOc1ccc(C2=C3C(C)=CC(C)=[N+]3[B-](F)(F)n3c(C)cc(C)c32)cc1
7. C#CC1=C(C)C2=C(c3ccc(OCCCCCCCCCCCC)c(OCCCCCCCCCCCC)c3)c3c(C)c(C#C)c(C)n3[B-](F)(F)[N+]2=C1C

result:
570
553
511
510
569
509
5.52

Lab note: each compound below needs its Emission maxima filled in.
1. CCCCCCCCCCCCOc1ccc(C2=C3C(C)=C(I)C(C)=[N+]3[B-](F)(F)n3c(C)c(I)c(C)c32)cc1
2. CCCCCCCCCCCCOc1ccc(C2=C3C(C)=C(I)C(C)=[N+]3[B-](F)(F)n3c(C)c(I)c(C)c32)cc1OCCCCCCCCCCCC

result:
1. 548
2. 549

Reference source: patent US9623123B2
